# tgt: A1 adenosine receptor (Rattus norvegicus, UniProt P25099)
# Construct: Whole brain minus cerebellum and brainstem from male Long-Evans rats (150-200 g) is homogenized
# Sequence (P25099 whole entry): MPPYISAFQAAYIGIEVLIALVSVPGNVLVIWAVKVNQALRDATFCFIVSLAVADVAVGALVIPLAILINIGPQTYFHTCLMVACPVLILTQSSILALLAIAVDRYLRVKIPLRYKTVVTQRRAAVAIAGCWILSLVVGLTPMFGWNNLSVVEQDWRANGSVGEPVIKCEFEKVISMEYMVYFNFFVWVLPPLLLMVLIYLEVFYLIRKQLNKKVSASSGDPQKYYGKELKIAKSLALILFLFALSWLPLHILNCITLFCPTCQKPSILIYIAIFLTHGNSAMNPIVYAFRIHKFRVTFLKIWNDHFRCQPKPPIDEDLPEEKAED
# procedure-details: Adenosine Receptor Binding--A1 Receptor Affinity (RBA1), [3H]-CHA, rat whole brain membranes
# condition-set: [3H]-CHA 1.0 nM, 25° C., one hour, pH 7.7; read-out: RBA-1 IC50 (adenosine A1 receptor affinity)
Where a name gives a salt, the structure may show the parent alone.
property: pIC50
Give bare numbers, as −log10 of the molar value.

Recorded pIC50 for C=CCn1c(=O)c2nc(-c3ccc(S(=O)(=O)O)cc3)[nH]c2n(CC=C)c1=O [Example 2] , please?
5.16

Input C=CCn1c(=O)c2[nH]c(-c3ccc(S(=O)(=O)NCCCN(C)C)cc3)nc2n(CC=C)c1=O [Example 3, monohydrochloride]
6.59

Another: C=CCn1c(=O)c2[nH]c(C3CCCC3)nc2n(CC=C)c1=O [Example 4]
8.05

Then there is this compound:
May I ask what pIC50 has been recorded for C=CCn1c(=O)c2nc(-c3ccc(Cl)cc3N)[nH]c2n(CC=C)c1=O [Example 1] ?
6.89

These measurements were taken from patent US4772607A.
